# log10 of MIC per entry
# System: MRSA ATCC 700699 (NRS1, VISA)
# Assay Remarks: MIC/MBC broth microdilution, NRS1 (ATCC 700699)
# Assay type: cell-based
# Conditions: Staphylococcus aureus; Table 8; NRS1 (VISA); triplicates, 20 hours; read-out: MIC
Readout Name: log10 of MIC (log10 of the value in µM)

{"Compound": "CCCCc1ccc(-c2nc(C)c(/C(C)=N/NC(=N)N)s2)cc1 [Compound 1a]", "Measured On": "MRSA ATCC 700699 (NRS1, VISA)", "log10 of MIC": 0.60}
{"Compound": "C/C(=N/NC(=N)N)c1sc(-c2ccc(-c3ccc(C(F)(F)F)cc3)cc2)nc1C [Compound M13]", "Measured On": "MRSA ATCC 700699 (NRS1, VISA)", "log10 of MIC": 0.90}
{"Compound": "CCCCC#Cc1ccc(-c2nc(C)c(/C(C)=N/NC(=N)N)s2)cc1 [Compound R1]", "Measured On": "MRSA ATCC 700699 (NRS1, VISA)", "log10 of MIC": 0.30}
{"Compound": "C/C(=N/NC(=N)N)c1sc(-c2ccc(-c3ccc(F)cc3)cc2)nc1C [Compound M12]", "Measured On": "MRSA ATCC 700699 (NRS1, VISA)", "log10 of MIC": 0.90}
{"Compound": "C/C(=N/NC(=N)N)c1sc(-c2ccc(-c3cccc4ccccc34)cc2)nc1C [Compound M14]", "Measured On": "MRSA ATCC 700699 (NRS1, VISA)", "log10 of MIC": 0.60}
{"Compound": "CC(=O)c1ccc(-c2ccc(-c3nc(C)c(/C(C)=N\\NC(=N)N)s3)cc2)cc1 [Compound M11]", "Measured On": "MRSA ATCC 700699 (NRS1, VISA)", "log10 of MIC": 1.20}
{"Compound": "C/C(=N\\NC(=N)N)c1sc(-c2ccc(N)cc2)nc1C [Compound M2]", "Measured On": "MRSA ATCC 700699 (NRS1, VISA)", "log10 of MIC": 1.81}

====

# System: MRSA ATCC 43300
# Assay Remarks: MIC/MBC broth microdilution, MRSA ATCC 43300
# Format: cell-based, Staphylococcus aureus
# Conditions: Staphylococcus aureus; Table 8; ATCC 43300; read-out: MIC

{"Smiles Input": "C/C(=N\\NC(=N)N)c1sc(-c2ccc(N)cc2)nc1C", "Measured On": "MRSA ATCC 43300", "Endpoint Unit": "µM", "Censoring Sign": "=", "MIC": 128}
{"Smiles Input": "CC(=O)c1ccc(-c2ccc(-c3nc(C)c(C(C)=O)s3)cc2)cc1", "Measured On": "MRSA ATCC 43300", "Endpoint Unit": "µM", "Censoring Sign": ">", "MIC": 128}
{"Smiles Input": "CC(=O)c1ccc(-c2ccc(-c3nc(C)c(/C(C)=N\\NC(=N)N)s3)cc2)cc1", "Measured On": "MRSA ATCC 43300", "Endpoint Unit": "µM", "Censoring Sign": "=", "MIC": 16}

====

# Tested on: MRSA NRS384 (USA300)
# Assay Remarks: MIC/MBC broth microdilution, NRS384 (USA300)
# Format: cell-based
# Conditions: Staphylococcus aureus; Table 8; NRS384; read-out: MIC
# Method: Determination of minimum inhibitory concentration (MIC). The MICs of the lead thiazole compound (compound 1a) and nine derivatives tested against all 18 MRSA strains were determined, in triplicate samples, using the broth microdilution method in accordance with the recommendations contained in the CLSI guidelines.
Readout Name: MIC (µM)

{"Smiles Input": "C/C(=N/NC(=N)N)c1sc(-c2ccc(-c3ccc(C(F)(F)F)cc3)cc2)nc1C", "Readout Name": "MIC", "Censoring Sign": "=", "Value Reported": 16}
{"Smiles Input": "CC(=O)c1sc(-c2ccc(-c3ccc(F)cc3)cc2)nc1C", "Readout Name": "MIC", "Censoring Sign": ">", "Value Reported": 128}
{"Smiles Input": "C/C(=N/NC(=N)N)c1sc(-c2ccc(-c3ccc(F)cc3)cc2)nc1C", "Readout Name": "MIC", "Censoring Sign": "=", "Value Reported": 16}
{"Smiles Input": "C/C(=N/NC(=N)N)c1sc(-c2ccc(-c3cccc4ccccc34)cc2)nc1C", "Readout Name": "MIC", "Censoring Sign": "=", "Value Reported": 4}
{"Smiles Input": "CCCCc1ccc(-c2nc(C)c(/C(C)=N/NC(=N)N)s2)cc1", "Readout Name": "MIC", "Censoring Sign": "=", "Value Reported": 4}
{"Smiles Input": "CCCCc1ccc(-c2nc(C)c(/C(N)=N\\O)s2)cc1", "Readout Name": "MIC", "Censoring Sign": ">", "Value Reported": 128}
{"Smiles Input": "CC(=O)c1sc(-c2ccc(-c3ccc(C(F)(F)F)cc3)cc2)nc1C", "Readout Name": "MIC", "Censoring Sign": ">", "Value Reported": 128}
{"Smiles Input": "CCCCC#Cc1ccc(-c2nc(C)c(/C(C)=N/NC(=N)N)s2)cc1", "Readout Name": "MIC", "Censoring Sign": "=", "Value Reported": 4}
{"Smiles Input": "CC(=O)c1ccc(-c2ccc(-c3nc(C)c(/C(C)=N\\NC(=N)N)s3)cc2)cc1", "Readout Name": "MIC", "Censoring Sign": "=", "Value Reported": 16}
{"Smiles Input": "C/C(=N\\NC(=N)N)c1sc(-c2ccc(N)cc2)nc1C", "Readout Name": "MIC", "Censoring Sign": "=", "Value Reported": 128}
{"Smiles Input": "CC(=O)c1ccc(-c2ccc(-c3nc(C)c(C(C)=O)s3)cc2)cc1", "Readout Name": "MIC", "Censoring Sign": ">", "Value Reported": 128}
{"Smiles Input": "CC(=O)c1sc(-c2ccc(-c3cccc4ccccc34)cc2)nc1C", "Readout Name": "MIC", "Censoring Sign": ">", "Value Reported": 128}
